Below, each of the compounds is paired with its reported MIC value.
Tested on: S. aureus RN450
Experiment: In Vitro Anti-Bacterial Activity Assay (MIC), gram positive
Assay type: cell-based
Details: Staphylococcus aureus, RN450, 18 h, gram positive bacteria; read-out: Antibiotic Activity Gram + (MIC)
Reported endpoint: MIC

>>> recorded_measurement("CC(=O)c1cc(CNCC(C)(C)C)c(O)c2c1C[C@H]1C[C@H]3[C@H](N(C)C)C(O)=C(C(N)=O)C(=O)[C@@]3(O)C(O)=C1C2=O")
"< 4 µg/mL"
>>> recorded_measurement("CN(C)[C@@H]1C(O)=C(C(N)=O)C(=O)[C@@]2(O)C(O)=C3C(=O)c4c(ccc(N5CCOCC5)c4O)C[C@H]3C[C@@H]12")
"> 4 µg/mL"
>>> recorded_measurement("CN(C)c1cc(Cn2ccc(C=O)c2)c(O)c2c1C[C@H]1C[C@H]3[C@H](N(C)C)C(O)=C(C(N)=O)C(=O)[C@@]3(O)C(O)=C1C2=O")
"< 4 µg/mL"
>>> recorded_measurement("CN(C)[C@@H]1C(O)=C(C(N)=O)C(=O)[C@@]2(O)C(O)=C3C(=O)c4c(O)ccc(-c5ccncc5)c4C[C@H]3C[C@@H]12")
"< 4 µg/mL"
>>> recorded_measurement("CN(C)[C@@H]1C(O)=C(C(N)=O)C(=O)[C@@]2(O)C(O)=C3C(=O)c4c(ccc(CNCCC(F)(F)F)c4O)C[C@H]3C[C@@H]12")
"< 4 µg/mL"
>>> recorded_measurement("CN1CCC(Nc2ccc3c(c2O)C(=O)C2=C(O)[C@]4(O)C(=O)C(C(N)=O)=C(O)[C@@H](N(C)C)[C@@H]4C[C@@H]2C3)CC1")
"< 4 µg/mL"
>>> recorded_measurement("CCCN(CCC)Cc1ccc(-c2ccc(O)c3c2C[C@H]2C[C@H]4[C@H](N(C)C)C(O)=C(C(N)=O)C(=O)[C@@]4(O)C(O)=C2C3=O)c2ccccc12")
"< 4 µg/mL"
>>> recorded_measurement("C[C@H]1c2c(CN)ccc(O)c2C(=O)C2=C(O)[C@]3(O)C(=O)C(C(N)=O)=C(O)[C@@H](N(C)C)[C@@H]3[C@@H](O)[C@@H]21")
"> 4 µg/mL"
>>> recorded_measurement("CN(C)c1cc(CN2CCOCC2)c(O)c2c1C[C@H]1C[C@H]3[C@H](N(C)C)C(O)=C(C(N)=O)C(=O)[C@@]3(O)C(O)=C1C2=O")
"< 4 µg/mL"
>>> recorded_measurement("CN(C)[C@@H]1C(O)=C(C(N)=O)C(=O)[C@@]2(O)C(O)=C3C(=O)c4c(O)ccc(C#N)c4C[C@H]3C[C@@H]12")
"< 4 µg/mL"
>>> recorded_measurement("CN(C)c1cc(CNc2nc(C(F)(F)F)co2)c(O)c2c1C[C@H]1C[C@H]3[C@H](N(C)C)C(O)=C(C(N)=O)C(=O)[C@@]3(O)C(O)=C1C2=O")
"< 4 µg/mL"
>>> recorded_measurement("CN(C)[C@@H]1C(O)=C(C(N)=O)C(=O)[C@@]2(O)C(O)=C3C(=O)c4c(O)ccc(CN5CCOCC5)c4C[C@H]3C[C@@H]12")
"< 4 µg/mL"

Taken from patent US20150141381A1.
